// data source = the supplement of paper PMC12317010

# experiment-notes: collision cross section in nitrogen (drift tube, single-field); higher = larger gas-phase ion size;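 further: chemical standards at 10 µM analysed by drift tube IMS-QTOF MS in about 3.95 torr nitrogen, mean of duplicate injections differing ≤1%, mass error below 10 ppm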
# assay-setup: ion type: [M+Na]; ion source: ESI; ion mode: Positive
quantity: collision cross section in nitrogen (Å²)

{"columns": ["compound", "quantity", "val"],
 "data": [
  ["CC(C)CCCCCCOC(=O)C1CCCCC1C(=O)OCCCCCCC(C)C (stereo not given) [Diisononyl cyclohexane-1,2-dicarboxylate]", "collision cross section in nitrogen", 220.8],
  ["CCOC(=O)n1ccn(C)c1=S [Carbimazole]", "collision cross section in nitrogen", 148],
  ["CC(=O)Nc1c(I)c(NC(C)=O)c(I)c(C(=O)O)c1I [Diatrizoic acid]", "collision cross section in nitrogen", 183.6],
  ["C[C@@H]1CCN(C(=O)[C@H](CCCNC(=N)N)NS(=O)(=O)c2cccc3c2NC[C@H](C)C3)[C@@H](C(=O)O)C1 [Argatroban monohydrate]", "collision cross section in nitrogen", 221.7],
  ["CCCOc1sc(C(=O)N2CCC(c3cc(CN)ccc3F)CC2)c(C)c1Br [AVE8923]", "collision cross section in nitrogen", 204.9]
]}

====

# experiment-notes: collision cross section in nitrogen (drift tube, single-field); higher = larger gas-phase ion size
# assay-setup: ion type: [M-H]; ion source: ESI; ion mode: Negative
Below: a set of entries, each annotated with reported collision cross section in nitrogen.
quantity: collision cross section in nitrogen (Å²)

{"columns": ["compound", "quantity", "unit-abbrev", "val"],
 "data": [
  ["N#Cc1ccc(C(=O)O)cc1", "collision cross section in nitrogen", "Å²", 142.1],
  ["CCNC(=O)C1CC(C)CCC1C(C)C (centres undefined) [N-Ethyl-2-(isopropyl)-5-methylcyclohexanecarboxamide]", "collision cross section in nitrogen", "Å²", 155.6],
  ["CCCC1O[C@@H]2C[C@H]3[C@@H]4CCC5=CC(=O)C=C[C@]5(C)[C@H]4[C@@H](O)C[C@]3(C)[C@]2(C(=O)CO)O1 (some centres undefined) [Budesonide]", "collision cross section in nitrogen", "Å²", 204.6],
  ["C=CS(=O)(=O)O [Sodium ethenesulfonate]", "collision cross section in nitrogen", "Å²", 113.6]
]}

====

# experiment-notes: collision cross section in nitrogen (drift tube, single-field); higher = larger gas-phase ion size
# assay-setup: ion type: [M+H]; ion source: ESI; ion mode: Positive
quantity: collision cross section in nitrogen (Å²)

{"columns": ["compound", "quantity", "val"],
 "data": [
  ["Nc1cc2c3c(c1)C(c1ccccc1)=N[C@@H](NC(=O)c1cccnc1)C(=O)N3CC2", "collision cross section in nitrogen", 200.1],
  ["CCCCCCCCCCCCCN1CC(C)OC(C)C1 (centres undefined)", "collision cross section in nitrogen", 183.5],
  ["C[Si](Cn1cncn1)(c1ccc(F)cc1)c1ccc(F)cc1", "collision cross section in nitrogen", 174.9],
  ["CC1COc2ccccc2N1 (centres undefined) [3-Methyl-3,4-dihydro-2H-1,4-benzoxazine]", "collision cross section in nitrogen", 131.2],
  ["COc1ccc(C(=O)Nc2nc3ccccc3c(NCc3ccccc3)c2C#N)cc1", "collision cross section in nitrogen", 206.7],
  ["CN1Cc2c(N)cccc2C(c2ccccc2)C1 (centres undefined)", "collision cross section in nitrogen", 156.2],
  ["COCC(C)N(C(=O)CCl)c1c(C)csc1C (centres undefined)", "collision cross section in nitrogen", 155.9],
  ["CC(CCCCN)C(C)(C)N (centres undefined)", "collision cross section in nitrogen", 140.4],
  ["CC(C)c1ccc2sc3ccccc3c(=O)c2c1", "collision cross section in nitrogen", 156.4],
  ["Nc1cnn(-c2ccccc2)c(=O)c1Cl", "collision cross section in nitrogen", 144],
  ["N#Cc1ccc(CC(=NNC(=O)Nc2ccc(OC(F)(F)F)cc2)c2cccc(C(F)(F)F)c2)cc1", "collision cross section in nitrogen", 212.4],
  ["O=c1cccc[nH]1", "collision cross section in nitrogen", 115.5],
  ["NC(=O)N1c2ccccc2CC(=O)c2ccccc21 [Oxcarbazepine]", "collision cross section in nitrogen", 154.8],
  ["CCOc1ccc2[nH]cc(C(=O)NCc3ccccc3)c(=O)c2n1", "collision cross section in nitrogen", 183.9],
  ["N=C(Nc1ccccc1)Nc1ccccc1", "collision cross section in nitrogen", 150.8],
  ["COCC(=O)N(c1c(C)cccc1C)C(C)C(=O)OC (centres undefined) [Metalaxyl]", "collision cross section in nitrogen", 160.8],
  ["COc1cc(C=O)cc2c1[C@H](COC(N)=O)[C@]1(OC(C)=O)ON2C[C@H]2[C@@H]1N2C(C)=O", "collision cross section in nitrogen", 192.1],
  ["Nc1ncnc2[nH]cnc12", "collision cross section in nitrogen", 125.2],
  ["CCN(Cc1cccc(S(=O)(=O)O)c1)c1ccc(C(=C2C=CC(=[N+](CC)Cc3cccc(S(=O)(=O)O)c3)C=C2)c2ccccc2S(=O)(=O)[O-])cc1", "collision cross section in nitrogen", 253.6]
]}

====

# experiment-notes: collision cross section in nitrogen (drift tube, single-field); higher = larger gas-phase ion size
# assay-setup: ion type: [M-H]; ion source: ESI; ion mode: Negative

{"columns": ["compound", "collision cross section in nitrogen, Å²"],
 "data": [
  ["OC(Cc1ccccc1Cl)(Cn1nc[nH]c1=S)C1(Cl)CC1 (centres undefined)", 171],
  ["Cc1ccccc1C(=O)Nc1cccc(OC(C)C)c1", 172.6],
  ["CCC(=O)Nc1cccc(N)c1 [N-(3-Aminophenyl)propanamide]", 138.7],
  ["O=C1Nc2ccc(Cl)cc2C(c2ccccc2)=NC1O (centres undefined)", 162.7],
  ["O=C1N=CC(Cl)=CC1Cl (centres undefined)", 123.4],
  ["O=C(O)c1cc(N=Nc2ccc(S(=O)(=O)Nc3ccccn3)cc2)ccc1O", 197.5],
  ["CCCCCCCCCCCCCCCC(=O)OC[C@H](O)[C@H]1OC(=O)C(O)=C1O [Ascorbyl palmitate]", 202.4],
  ["O=C1CC(c2ccc(O)cc2)Oc2cc(O)cc(O)c21 (racemic) [(+/-)-Naringenin]", 163.9],
  ["CC(=O)c1ccc(O)cc1 [4-Hydroxyacetophenone]", 125.5]
]}

====

Below: a set of entries, each annotated with reported collision cross section in nitrogen.
# experiment-notes: collision cross section in nitrogen (drift tube, single-field); higher = larger gas-phase ion size
# assay-setup: ion type: [M-H]; ion source: ESI; ion mode: Negative

{"columns": ["molecule", "unit-abbrev", "collision cross section in nitrogen"],
 "data": [
  ["O=C(O)c1ccccc1C(=O)OC1CCCCC1 [Monocyclohexyl phthalate]", "Å²", 159.9],
  ["CCCN(CC1CC1)c1c([N+](=O)[O-])cc(C(F)(F)F)cc1[N+](=O)[O-] [Profluralin]", "Å²", 172.2],
  ["O=S(=O)(O)c1cc(O)ccc1O [Potassium 2,5-dihydroxybenzenesulfonate]", "Å²", 131.2],
  ["O=C(CC(=O)c1ccccc1)c1ccccc1 [1,3-Diphenyl-1,3-propanedione]", "Å²", 154.4],
  ["C[C@]12CC[C@@H]3c4ccc(O)cc4C[C@@H](CCCCCCCCCS(=O)CCCC(F)(F)C(F)(F)F)[C@H]3[C@@H]1CC[C@@H]2O (stereo not given in full) [Fulvestrant]", "Å²", 246.5],
  ["O=C(O)CCCCC(=O)O [Hexanedioic acid]", "Å²", 127.9],
  ["CC(C)NC(=O)c1ccccc1N [2-Amino-N-(1-methylethyl)benzamide]", "Å²", 140.8],
  ["CCn1nc(Cc2ccccc2)cc1C1CCN(C[C@H]2C[C@H](N(C)[C@@H](C(=O)O)C(C)C)C[C@@H]2c2cccc(F)c2)CC1 [MK-578]", "Å²", 247.7],
  ["CCCCCCCC(=O)OC [Methyl octanoate]", "Å²", 146.7],
  ["Oc1cccc(I)c1 [3-Iodophenol]", "Å²", 122.5],
  ["Oc1c(I)cc(I)cc1I [2,4,6-Triiodophenol]", "Å²", 143.5],
  ["Cc1ccccc1O [o-Cresol]", "Å²", 120.4],
  ["CC[C@H](NC(=O)c1cc(F)ccc1NS(=O)(=O)c1cccc2cccnc12)c1ccccc1 [AVE3295]", "Å²", 203],
  ["CCCCCCCCOC(=O)c1ccccc1O [Octyl salicylate]", "Å²", 162.2],
  ["CCCCCCCCCCCCCC(=O)OCC [Ethyl tetradecanoate]", "Å²", 169.8],
  ["O=P(O)(O)c1ccccc1 [Phenylphosphonic acid]", "Å²", 130.1],
  ["[O-][Cl+2]([O-])O [Potassium chlorate]", "Å²", 104],
  ["O=S(=O)(O)C(F)(F)F [Trifluoromethanesulfonic acid]", "Å²", 110.8],
  ["Oc1cccc(O)n1 [6-Hydroxy-2-oxopyridinium chloride]", "Å²", 115],
  ["Cc1ccc(N)c(S(=O)(=O)O)c1 [2-Amino-5-methylbenzenesulfonic acid]", "Å²", 137.9]
]}
